- measurement.target: hEP4 (Homo sapiens, UniProt P35408)
- Sequence (P35408 whole entry): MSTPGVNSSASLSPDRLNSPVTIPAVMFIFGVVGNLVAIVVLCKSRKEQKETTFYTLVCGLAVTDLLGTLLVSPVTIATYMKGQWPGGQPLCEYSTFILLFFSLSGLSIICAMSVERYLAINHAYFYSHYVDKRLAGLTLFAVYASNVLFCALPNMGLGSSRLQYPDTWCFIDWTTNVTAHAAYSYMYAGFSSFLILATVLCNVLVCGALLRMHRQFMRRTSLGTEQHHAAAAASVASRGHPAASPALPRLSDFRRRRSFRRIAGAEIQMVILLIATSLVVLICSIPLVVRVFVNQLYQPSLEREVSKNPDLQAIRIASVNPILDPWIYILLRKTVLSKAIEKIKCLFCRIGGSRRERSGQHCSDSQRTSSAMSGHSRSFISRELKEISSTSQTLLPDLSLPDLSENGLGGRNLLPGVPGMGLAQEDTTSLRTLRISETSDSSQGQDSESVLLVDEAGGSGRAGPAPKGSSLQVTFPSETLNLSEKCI
- test.details: FLIPR calcium signal, hEP4
- experimental.setup: HEK-293(EBNA) cells expressing hEP4/Gqs5
quantity: pEC50
Scale: negative log10 of molar concentration, which is what pEC50 denotes.

The cases that follow already have their pEC50 on record.
# compound.structure, pEC50
rows = [
    ("O=C(O)CCCCCC[C@@H]1[C@@H](COc2ccc3ccccc3c2)[C@H](O)C[C@H]1Cl", 5.20),
    ("CC(=O)OCc1cc(Cl)cc(OC[C@@H]2[C@@H](C/C=C\\CCCC(=O)O)[C@H](Cl)C[C@H]2O)c1", 5.13),
]

Now, please, on to the next molecule.
Lookup: Value lookup for pEC50; key = "O=C(O)CCC/C=C\C[C@@H]1[C@@H](COc2ccc3ccccc3c2)[C@H](O)C[C@H]1Cl"
Found: 5.47

###

- System: normotensive dogs
- test.details: Intraocular pressure and ocular surface hyperemia in normotensive dogs
- Format: in vivo, dog
- experimental.setup: 0.1%, once daily for 5 days
# time of maximum IOP decrease values compiled below
Number only, in h; omit the unit.

Before answering, review these 3 worked examples.
# molecule, time of maximum IOP decrease [h]
records = [
    ("O=C(O)CCC/C=C\\C[C@@H]1[C@@H](COc2cc(C(F)(F)F)cc(C(F)(F)F)c2)[C@H](O)C[C@H]1Cl [Example 15]", 100),
    ("O=C(O)CCC/C=C\\C[C@@H]1[C@@H](COc2cccc3ccccc23)[C@H](O)C[C@H]1Cl [Example 19]", 6),
    ("Cc1cc(C)cc(OC[C@@H]2[C@@H](C/C=C\\CCCC(=O)OC(C)C)[C@H](Cl)C[C@H]2O)c1 [Example 42u]", 30),
]

Lookup: # query: time of maximum IOP decrease of entry CC(C)OC(=O)CCC/C=C\C[C@@H]1[C@@H](COc2ccc(CO)cc2)[C@H](O)C[C@H]1Cl [Example 42bb]
Found: 100

###

So I've got pKi readings for hEP2 (Homo sapiens, UniProt P43116), take a look.
Reminder that pKi means the negative base-10 logarithm of the concentration expressed in mol/L.

Known pKi results, listed for orientation:
# compound, pKi
rows = [
    ("O=C(O)CCC/C=C\\C[C@@H]1[C@@H](COc2ccc(CCO)cc2)[C@H](O)C[C@H]1Cl", 5.70),
    ("O=C(O)CCCCCC[C@@H]1[C@@H](COc2cc(C(F)(F)F)cc(C(F)(F)F)c2)[C@H](O)C[C@H]1Cl", 7.35),
]

Lookup: Enter reported pKi observed with hEP2 (Homo sapiens, UniProt P43116) for "O=C(O)CCC/C=C\C[C@@H]1[C@@H](COc2cc(C(F)(F)F)cc(Cl)c2F)[C@H](O)C[C@H]1Cl"
Sequence (P43116 whole entry): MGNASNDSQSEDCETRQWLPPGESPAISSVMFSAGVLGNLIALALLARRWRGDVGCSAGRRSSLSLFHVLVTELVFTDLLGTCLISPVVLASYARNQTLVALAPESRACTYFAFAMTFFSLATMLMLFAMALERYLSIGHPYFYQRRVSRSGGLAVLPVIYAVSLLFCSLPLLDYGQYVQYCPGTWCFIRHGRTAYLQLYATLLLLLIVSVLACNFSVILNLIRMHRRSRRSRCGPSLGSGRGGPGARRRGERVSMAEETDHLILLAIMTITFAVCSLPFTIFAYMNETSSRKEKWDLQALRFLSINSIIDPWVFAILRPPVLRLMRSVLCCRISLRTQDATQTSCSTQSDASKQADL
Found: 7.80

Lookup: // lookup pKi | system=hEP2 (Homo sapiens, UniProt P43116) | key= "Cc1cc(OC[C@@H]2[C@@H](C/C=C\CCCC(=O)O)[C@H](Cl)C[C@H]2O)cc(C)c1C"
Found: 7.60

Lookup: Missing value: pKi, hEP2 (Homo sapiens, UniProt P43116), entry "O=C(O)CCC/C=C\C[C@@H]1[C@@H](COc2cc(C(F)(F)F)cc(C(F)(F)F)c2)[C@H](O)C[C@H]1Cl" . Fill in?
Found: 8.10
